Assayed Target: MOR (Rattus norvegicus, UniProt P33535)
Construct: from tissue
Sequence (P33535 whole entry): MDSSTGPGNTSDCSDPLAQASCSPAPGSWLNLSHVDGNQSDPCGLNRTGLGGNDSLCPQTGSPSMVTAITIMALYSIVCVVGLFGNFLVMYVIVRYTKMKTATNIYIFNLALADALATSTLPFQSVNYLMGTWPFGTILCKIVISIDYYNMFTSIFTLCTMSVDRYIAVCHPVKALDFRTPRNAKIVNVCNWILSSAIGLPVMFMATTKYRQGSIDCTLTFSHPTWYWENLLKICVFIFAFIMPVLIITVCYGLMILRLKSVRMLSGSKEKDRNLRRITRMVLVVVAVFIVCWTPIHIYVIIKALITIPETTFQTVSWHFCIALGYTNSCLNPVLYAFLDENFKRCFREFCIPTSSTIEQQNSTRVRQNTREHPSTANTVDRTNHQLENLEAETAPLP
Method Description: Opioid receptor binding, MOR, rat brain membranes
Measurement Parameters: Binding Ki MOR, Table 1-4, rat brain membranes
Assay Readout: Ki (nM)
Expressed in nM, but write only the number.

                                   compound  recorded_result
0  CCO[C@@]12CC[C@H](NCC(=O)O)[C@@H]3Oc4c(O)ccc5c4[C@@]31CCN(C)[C@@H]2C5             0.57

# input Ki lookup needed for C[C@H](N[C@@H]1CC[C@@]2(O)[C@H]3Cc4ccc(O)c5c4[C@@]2(CCN3C)[C@H]1O5)C(=O)O , thanks.
# output 11

# input And CCO[C@@]12CC[C@@H](NCC(=O)O)[C@@H]3Oc4c(O)ccc5c4[C@@]31CCN(C)[C@@H]2C5 ?
# output 0.95

# input Note, next up: COC12CCC(NC(C(=O)O)C(C)C)C3Oc4c(O)ccc5c4C31CCN(C)C2C5 (single isomer, unassigned) [Compound 28]
# output 3.16
